- Protocol Description: Pharmacokinetics in mice (IV and PO), plasma LC-MS/MS
- Type: in vivo, Male ICR (CD-1) mice
- Setup Conditions: male, ICR (CD-1), mouse, plasma, 1 mg/kg, IV (1 mpk), read-out: Vss
Where a name gives a salt, the structure may show the parent alone.
Endpoint: Vd (L/kg)

COc1ccc(C(=O)N(CC(C)(C)CCCCCCCCCCCCCCCCCC(=O)NCCC[N+](C)(CC(=O)NCCN)CC(=O)NCCN)c2cccc(C)n2)c(N2CCC(COc3cc([C@@H](CC(=O)O)C4CC4)ccn3)CC2)c1 [Example 12] : 0.1
COc1ccc(C(=O)N(CC(C)(C)CCCCCCCCCCCCCCCCCC(=O)NCCC[N+]23CCN(CC2)CC3)c2cccc(C)n2)c(N2CCC(COc3cc([C@@H](CC(=O)O)C4CC4)ccn3)CC2)c1 [Example 18, TFA salt] : 0.11

P. COc1ccc(C(=O)N(CC(C)(C)CCCCCCCCCCCCCCCCCCCC(=O)NCCC[N+](C)(CC(=O)[O-])CC(=O)O)c2cccc(C)n2)c(N2CCC(COc3cc([C@@H](CC(=O)O)C4CC4)ccn3)CC2)c1 (stereo partly shown) [Example 14]
Q. COc1ccc(C(=O)N(CC(C)(C)CCCCCCCCCCCCCCCCCCCC(=O)NCC[N+](C)(CC(=O)NCCN)CC(=O)NCCN)c2cccc(C)n2)c(N2CCC(COc3cc([C@@H](CC(=O)O)C4CC4)ccn3)CC2)c1 [Example 4]
Input: I'm curious whether P or Q has the smaller Vd number. Which is it? Mark your answer with the label of the selected entry.
Output: P
(P: 0.09 L/kg, Q: 0.14 L/kg)

----------
- Protocol Description: Pharmacokinetics in mice (IV and PO), plasma LC-MS/MS
- Type: in vivo, Male ICR (CD-1) mice
- Setup Conditions: male, ICR (CD-1), mouse, plasma, 1 mg/kg, IV (1 mpk)
- Procedure: Male ICR (CD-1) mice at around 4-6 weeks with body weight of around 25 grams (n=3) were purchased from VT-River (Zhejiang, China). After 1-week acclimation, animals were dosed with exemplary compounds intravenously at 1 mpk or orally at 10 mpk (0.5% methylcellulose in PBS as vehicle for both routes of administration). Blood samples (30 μL) were collected via saphenous vein puncture at 5 (IV only), 15, 30, 60, 120, 240, 480, and 1440 min post dose. […]
Structures can show the parent of a compound that is named as a salt.
Endpoint: AUC (µM·h)

COc1ccc(C(=O)N(CC(C)(C)CCCCCCCCCCCCCCCCCC(=O)NCCC[N+]23CCN(CC2)CC3)c2cccc(C)n2)c(N2CCC(COc3cc([C@@H](CC(=O)O)C4CC4)ccn3)CC2)c1 [Example 18, TFA salt] : 33.7

a. COc1ccc(C(=O)N(CC(C)(C)CCCCCCCCCCCCCCCCCC(=O)NCCC[N+]23CC[N+](C)(CC2)CC3)c2cccc(C)n2)c(N2CCC(COc3cc([C@@H](CC(=O)O)C4CC4)ccn3)CC2)c1
b. COc1ccc(C(=O)N(CC(C)(C)CCCCCCCCCCCCCCCCCCCC(=O)NCCC[N+](C)(CC(=O)[O-])CC(=O)O)c2cccc(C)n2)c(N2CCC(COc3cc([C@@H](CC(=O)O)C4CC4)ccn3)CC2)c1 (stereo partly shown)
c. COc1ccc(C(=O)N(CC(C)(C)CCCCCCCCCCCCCCCCCCCCCC[N+]23CCN(CC2)CC3)c2cccc(C)n2)c(N2CCC(COc3cc([C@@H](CC(=O)O)C4CC4)ccn3)CC2)c1
Input: Put the items in sequence by AUC, from largest down. Please list the labels in the order you were asked to rank them.
Output: b, a, c
(b: 68 µM·h, a: 28.5 µM·h, c: 18.5 µM·h)
